Data credit: patent US5985874A

# TARGET_UNDER_TEST: NK1 receptor (Homo sapiens, UniProt P25103)
# Sequence (P25103 whole entry): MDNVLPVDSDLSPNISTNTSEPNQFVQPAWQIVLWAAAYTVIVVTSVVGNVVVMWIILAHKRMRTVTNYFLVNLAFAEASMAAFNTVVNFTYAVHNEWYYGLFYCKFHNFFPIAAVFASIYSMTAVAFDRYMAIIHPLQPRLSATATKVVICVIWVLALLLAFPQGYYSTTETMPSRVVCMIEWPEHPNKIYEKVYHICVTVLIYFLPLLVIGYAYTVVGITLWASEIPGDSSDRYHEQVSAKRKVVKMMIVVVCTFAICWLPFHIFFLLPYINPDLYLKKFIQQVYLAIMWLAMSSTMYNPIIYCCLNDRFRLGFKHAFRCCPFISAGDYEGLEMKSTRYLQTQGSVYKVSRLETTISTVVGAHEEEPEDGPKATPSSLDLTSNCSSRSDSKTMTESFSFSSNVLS
pIC50: −log10 of the molar value.
ATTRIBUTE_MEASURED: pIC50

INSERT INTO measurements (compound, recorded_measurement) VALUES
  ('Cn1cnc(CN2CCO[C@H](O[C@H](CO)c3cc(C(F)(F)F)cc(C(F)(F)F)c3)[C@@H]2c2ccc(F)cc2)n1 [Example 1]', '> 9.00');
